# assayed.system: mAChR M4 (Homo sapiens)
# Construct: expressed in transfected cells; host or cells: CHO-K1 cells stably transfected with M4 cDNA and chimeric G-protein Gqi5
# Sequence (P08173 whole entry): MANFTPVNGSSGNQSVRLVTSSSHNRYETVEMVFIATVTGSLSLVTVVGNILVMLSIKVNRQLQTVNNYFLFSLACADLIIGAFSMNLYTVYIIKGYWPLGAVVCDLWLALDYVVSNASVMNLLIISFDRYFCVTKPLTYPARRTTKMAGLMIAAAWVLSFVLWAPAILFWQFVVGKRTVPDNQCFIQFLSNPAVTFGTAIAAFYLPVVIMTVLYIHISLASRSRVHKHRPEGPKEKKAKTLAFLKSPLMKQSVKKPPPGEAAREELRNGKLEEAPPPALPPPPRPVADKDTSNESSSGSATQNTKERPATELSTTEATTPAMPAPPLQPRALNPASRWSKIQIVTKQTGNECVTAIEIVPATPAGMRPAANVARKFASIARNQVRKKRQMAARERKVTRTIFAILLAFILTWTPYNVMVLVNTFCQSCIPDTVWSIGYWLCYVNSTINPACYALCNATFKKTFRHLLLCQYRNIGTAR
# assay.remarks: mAChR M4 cell-based functional assay (calcium mobilization, potentiation of EC20 acetylcholine response)
# settings: % ACh maximum at 30 μM
quantity.name: Emax at 30 µM (%)

Some solved cases for reference:
{"molecule": "Cc1nnc2sc(C(=O)NCc3ccc(S(F)(F)(F)(F)F)cc3)c(N)c2c1C [Example B297]", "Emax at 30 µM (%)": 76}
{"molecule": "Cc1nnc2sc(C(=O)NCc3ccc4c(c3)CCO4)c(N)c2c1C [Example B27]", "Emax at 30 µM (%)": 76}

[A] COc1cccc(S(=O)(=O)N2CCC(NC(=O)c3sc4nnc(C)c(C)c4c3N)C2)c1 (stereo not shown) [Example B214]
[B] Cc1nnc2sc(C(=O)NCCN(C)S(=O)(=O)c3ccc(F)cc3)c(N)c2c1C [Example B358]
Request: Form: Entry with minimum Emax at 30 µM (choose one): A / B Answer format: the label of the selected item.
Response: B
(B: 49%, A: 73%)
